Biological target: T1, OTULIN (OTU deubiquitinase with linear linkage specificity, FAM105B), His-tagged, biotin-labelled (human, UniProt Q96BN8 1-352, biotin (label; sites not stated))
T1 construct: OTULIN (FAM105B), cDNA in pET28a; also called HIS-OTULIN; source: E. coli BL21 (DE3), purified (His-tag Purification Resin), labelled with biotin; not shown: His6, N-terminal, kept
Assay: peptide or protein array; HuProt human proteome microarray; 5 ug/5 ml biotin-labelled LUBAC or OTULIN in solution, 1 h at room temperature; Cy5-streptavidin, scanned at 635 nm; BSA as negative control; hits: Z-score >= 3 and I_(Mean_Ratio) >= 1.4
Conditions: both partners purified
endpoint: binding result

{"columns": ["binder", "endpoint", "measured.result"],
 "data": [
  ["DECR2 (natural protein, human, UniProt Q9NUI1 1-292, looked up, DECR2; protein on the human proteome microarray; source: spotted on the HuProt human proteome microarray) MAQPPPDVEGDDCLPAYRHLFCPDLLRDKVAFITGGGSGIGFRIAEIFMRHGCHTVIASRSLPRVLTAARKLAGATGRRCLPLSMDVRAPPAVMAAVDQALKEFGRIDILINCAAGNFLCPAGALSFNAFKTVMDIDTSGTFNVSRVLYEKFFRDHGGVIVNITATLGNRGQALQVHAGSAKAAVDAMTRHLAVEWGPQNIRVNSLAPGPISGTEGLRRLGGPQASLSTKVTASPLQRLGNKTEIAHSVLYLASPLASYVTGAVLVADGGAWLTFPNGVKGLPDFASFSAKL", "binding result", "binds"]
]}
